The reported measurements were obtained from PubChem BioAssay AID624404.

# Test system: D54 LucT luciferase reporter counterscreen, luminescence, 24 h
# Assay overview: reporter signal increase, D54 LucT cells – cell-based, luminescence, cherry pick, counter-screen for N-linked glycosylation inhibitor project, dose response (AID 624404)
Records with an inconclusive call do not appear.
Property label: AC35

Reference set (5 entries):
> print(dat)
                                   compound  property.label  test.result
1  CCN1C(=O)c2cccc3c(S(=O)(=O)Nc4ccccc4OC)ccc1c23            AC35       896 nM
2  COc1ccc(S(=O)(=O)NCc2ccccn2)cc1NC(=O)c1ccccc1C            AC35      3110 nM
3    COc1ccccc1NC(=O)c1ccc(-c2ccc(Br)cc2)o1            AC35       466 nM
4  CC12CC[C@H]3[C@@H](CCC4(O)C[C@H](O)CCC34/C=N/NC(=O)c3ccccc3[N+](=O)[O-])C1(O)CCC2C1=CC(=O)OC1 (stereo not given in full)            AC35      4030 nM
5  COCCCNC(=O)Cc1c(C)c2c(cc(C)c3c(C(C)(C)C)coc32)oc1=O            AC35       156 nM

// AC35 lookup, compound = `Cn1c(=O)[nH]c(=O)c2c1nc(NN)n2CCOc1ccccc1` , result: 3090 nM

// AC35 lookup, compound = `O=C1Cc2c([nH]c3ccc([N+](=O)[O-])cc23)-c2ccccc2N1` , result: 894 nM

// AC35 lookup, compound = `O=C(CCl)Nc1cccc(S(=O)(=O)NC2=NCCC2)c1` , result: 1620 nM

// AC35 lookup, compound = `COc1cccc(/C=N/NC(=O)c2ccc(N3CCCC3=O)cc2)c1` , result: 733 nM

// AC35 lookup, compound = `O=C(C[C@H]1C/C=C\C[C@H](Cc2ccc(F)cc2)C(=O)O[C@@H](c2ccccc2)CNC1=O)N[C@@H](CO)Cc1ccccc1` , result: 575 nM

// AC35 lookup, compound = `Cn1c(=O)n(C)c2cc(C(=O)Nc3ccc4c(c3)OCO4)ccc21` , result: 1870 nM

// AC35 lookup, compound = CCc1ccc(C2c3[nH]c4ccccc4c3CCN2C(=O)c2ccc(=O)n(C)n2)cc1 (stereo not given) , result: 1240 nM

// AC35 lookup, compound = `O=C(Nc1cccc(-c2cn3ccccc3n2)c1)c1cccc(Cl)c1` , result: 2150 nM

// AC35 lookup, compound = `Cc1cc(C(=O)N/N=C/c2c3ccccc3cc3ccccc23)n[nH]1` , result: 643 nM

// AC35 lookup, compound = O=C1c2cccc3c([N+](=O)[O-])ccc(c23)C(=O)N1CC1CCCO1 (stereo not given) , result: 315 nM

// AC35 lookup, compound = `Cc1ccc(S(=O)(=O)NC2=C(N3CCN(Cc4ccccc4)CC3)C(=O)c3ccccc3C2=O)cc1` , result: 2540 nM

// AC35 lookup, compound = `Cc1cccc([C@@H]2[C@@H]3C(=O)N(Cc4ccccc4)C(=O)[C@@H]3[C@]3(Cc4ccccc4)C(=O)N(c4cccc(F)c4)C(=O)N23)c1` , result: 4360 nM
